molecular target: hCB1 (Homo sapiens, UniProt P21554); assay: bioSensAll ebBRET signaling profiling, hCB1; format: cell-based; parameters: host or cells: HEK293SL cells, transient PEI transfection; settings: Log [Compound] (M) -4.63927; single replicate values, FigS6a
Sequence (P21554 whole entry): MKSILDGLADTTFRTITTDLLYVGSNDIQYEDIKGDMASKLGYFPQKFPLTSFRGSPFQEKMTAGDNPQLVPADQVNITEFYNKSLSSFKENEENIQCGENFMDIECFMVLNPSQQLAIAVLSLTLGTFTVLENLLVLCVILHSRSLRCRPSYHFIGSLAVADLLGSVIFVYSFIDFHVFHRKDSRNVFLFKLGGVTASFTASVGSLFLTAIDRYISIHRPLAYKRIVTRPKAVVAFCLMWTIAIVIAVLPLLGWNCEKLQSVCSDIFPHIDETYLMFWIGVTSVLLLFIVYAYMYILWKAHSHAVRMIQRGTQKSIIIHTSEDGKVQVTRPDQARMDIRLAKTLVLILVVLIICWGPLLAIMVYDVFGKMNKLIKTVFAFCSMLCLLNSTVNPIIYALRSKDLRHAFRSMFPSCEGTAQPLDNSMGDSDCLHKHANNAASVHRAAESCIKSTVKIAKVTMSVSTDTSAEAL
ASSAY READOUT: GoB hCB1

Worked set:
COC(=O)C(NC(=O)c1cc(C)n(-c2cccc(C(F)(F)F)c2)n1)c1cccs1 (stereo not shown)    96.2724
CC(=O)C(c1cccs1)N(C)C(=O)c1cc(C)n(-c2cccc(C(F)(F)F)c2)n1 (stereo not shown)    48.6345
Cc1cc(C(=O)N(C)C(c2ccccc2)c2ccco2)nn1-c1cccc(C(F)(F)F)c1 (stereo not shown)    -34.2867

# ---- query molecule ----
*Q* Item: Cc1cc(C(=O)N2CC3(CCC3)[C@@H]2[C@@H]2CCCO2)nn1-c1cccc(C(F)(F)F)c1 Test system: hCB1 (Homo sapiens, UniProt P21554) Read-out: GoB hCB1 Value: ?
*A* -8.211

All values here come from paper PMC11882969.
